System: K. pneumoniae 1228586
Type: cell-based, Klebsiella pneumoniae
Conditions: 1228586, 20 h
Procedure: All minimum inhibitory concentrations (MICs) were determined according to the Clinical and Standards Laboratory Institute (CLSI) guidelines. In brief, agar plates were inoculated from glycerol stocks and incubated overnight at 35 °C. Peptide DMSO stocks were dispensed into 96-well round-bottom plates using a TECAN D300e dispenser. […] Images of all plates were recorded, and MIC was assessed visually.
Where a SMILES comes first, the peptide text is derived from it. [ ]: non-standard residue; d: D form. The star is where a group is joined. d(aIle) = CC[C@H](C)[C@@H](N)C(=O)O; dDab = NCC[C@@H](N)C(=O)O; Octanoyl = CCCCCCCC(=O)*; Dab = NCC[C@H](N)C(=O)O

molecule	MIC
CCCCCCCC(=O)N[C@@H](C(=O)N[C@H](CCN)C(=O)NCC(=O)N[C@H](CO)C(=O)N[C@H](Cc1c[nH]c2ccccc12)C(=O)N[C@@H](CO)C(=O)N[C@@H](CCN)C(=O)N[C@H](CCN)C(=O)N[C@@H](Cc1ccc(O)cc1)C(=O)N[C@@H](CCC(=O)O)C(=O)N[C@H](C(=O)N[C@@H](C(=O)N[C@@H](C)C(=O)O)[C@@H](C)CC)C(C)C)C(C)C [Oct-Tyr9] (Octanoyl-[dV][dDab]G[dS][dW]S[Dab][dDab]YEV[d(aIle)]A-OH)	4 µg/mL

---

Tested on: P. aeruginosa 1226072
Format: cell-based, Pseudomonas aeruginosa
Details: 1226072, 20 h
Where a SMILES comes first, the peptide text is derived from it. [ ]: non-standard residue; d: D form. The star is where a group is joined. d(aIle) = CC[C@H](C)[C@@H](N)C(=O)O; dDab = NCC[C@@H](N)C(=O)O; Octanoyl = CCCCCCCC(=O)*; Dab = NCC[C@H](N)C(=O)O

compound	units_text	MIC
CCCCCCCC(=O)N[C@@H](C(=O)N[C@H](CCN)C(=O)NCC(=O)N[C@H](CO)C(=O)N[C@H](Cc1c[nH]c2ccccc12)C(=O)N[C@@H](CO)C(=O)N[C@@H](CCN)C(=O)N[C@H](CCN)C(=O)N[C@@H](Cc1ccc(O)cc1)C(=O)N[C@@H](CCC(=O)O)C(=O)N[C@H](C(=O)N[C@@H](C(=O)N[C@@H](C)C(=O)O)[C@@H](C)CC)C(C)C)C(C)C [Oct-Tyr9] (Octanoyl-[dV][dDab]G[dS][dW]S[Dab][dDab]YEV[d(aIle)]A-OH)	µg/mL	4
CCCCCCCC(=O)N[C@@H](C(=O)N[C@H](CCN)C(=O)NCC(=O)N[C@H](CO)C(=O)N[C@H](Cc1c[nH]c2ccccc12)C(=O)N[C@@H](CO)C(=O)N[C@@H](CCN)C(=O)N[C@H](CCN)C(=O)NCC(=O)N[C@@H](CCC(=O)O)C(=O)N[C@H](C(=O)N[C@@H](C(=O)N[C@@H](C)C(=O)O)[C@@H](C)CC)C(C)C)C(C)C [Oct-Gly9] (Octanoyl-[dV][dDab]G[dS][dW]S[Dab][dDab]GEV[d(aIle)]A-OH)	µg/mL	32
CCCCCCCC(=O)N[C@@H](C(=O)N[C@H](CCN)C(=O)NCC(=O)N[C@H](CO)C(=O)N[C@H](Cc1c[nH]c2ccccc12)C(=O)N[C@@H](CO)C(=O)N[C@@H](CCN)C(=O)N[C@H](CCN)C(=O)N[C@@H](Cc1c[nH]cn1)C(=O)N[C@@H](CCC(=O)O)C(=O)N[C@H](C(=O)N[C@@H](C(=O)N[C@@H](C)C(=O)O)[C@@H](C)CC)C(C)C)C(C)C [Oct-His9] (Octanoyl-[dV][dDab]G[dS][dW]S[Dab][dDab]HEV[d(aIle)]A-OH)	µg/mL	4
CCCCCCCC(=O)N[C@@H](C(=O)N[C@H](CCN)C(=O)NCC(=O)N[C@H](CO)C(=O)N[C@H](Cc1c[nH]c2ccccc12)C(=O)N[C@@H](CO)C(=O)N[C@@H](CCN)C(=O)N[C@H](CCN)C(=O)N[C@H](C(=O)N[C@@H](CCC(=O)O)C(=O)N[C@H](C(=O)N[C@@H](C(=O)N[C@@H](C)C(=O)O)[C@@H](C)CC)C(C)C)[C@@H](C)CC)C(C)C [Oct-Ile9] (Octanoyl-[dV][dDab]G[dS][dW]S[Dab][dDab]IEV[d(aIle)]A-OH)	µg/mL	16
CCCCCCCC(=O)N[C@H](Cc1ccccc1)C(=O)N[C@H](CCN)C(=O)N[C@@H](C(=O)N[C@H](CO)C(=O)N[C@H](Cc1c[nH]c2ccccc12)C(=O)N[C@@H](CO)C(=O)N[C@@H](CO)C(=O)N[C@H](CCN)C(=O)N[C@@H](Cc1c[nH]c2ccccc12)C(=O)N[C@@H](CO)C(=O)N[C@H](C(=O)N[C@@H](C(=O)N[C@@H](CCN)C(=O)O)[C@@H](C)CC)C(C)C)[C@H](C)CC [Oct-TriD] (Octanoyl-[dF][dDab][dI][dS][dW]SS[dDab]WSV[d(aIle)][Dab]-OH)	µg/mL	32
